The molecules listed here are annotated with their Ki.
Target Or Test System: GST-hPPARγ2 (Homo sapiens, UniProt P37231)
Construct: the complete cDNA of the […] human PPARs were cloned into pGEX4T2; made in house; host or cells: Escherichia coli BL21 (DE3)
Sequence (P37231 whole entry): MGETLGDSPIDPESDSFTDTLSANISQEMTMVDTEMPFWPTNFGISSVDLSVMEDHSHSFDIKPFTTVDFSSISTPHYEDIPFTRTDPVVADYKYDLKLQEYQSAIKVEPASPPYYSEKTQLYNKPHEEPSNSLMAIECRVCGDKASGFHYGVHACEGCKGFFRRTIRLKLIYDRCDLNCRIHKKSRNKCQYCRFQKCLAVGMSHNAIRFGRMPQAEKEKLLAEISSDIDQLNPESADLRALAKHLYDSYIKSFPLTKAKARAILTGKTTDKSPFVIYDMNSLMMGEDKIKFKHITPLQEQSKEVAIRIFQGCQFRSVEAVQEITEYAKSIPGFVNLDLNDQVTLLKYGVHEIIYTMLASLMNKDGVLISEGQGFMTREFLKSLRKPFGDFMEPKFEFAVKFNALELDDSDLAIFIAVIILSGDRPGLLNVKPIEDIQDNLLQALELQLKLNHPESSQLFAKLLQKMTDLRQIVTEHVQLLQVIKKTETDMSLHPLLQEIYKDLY
Measurement Notes: Assay of binding to the PPARγ2 ([3H]BRL-49853 displacement)
Cond: Table 19; GST-hPPARγ2, [3H]BRL-49853 100 nM; read-out: Affinity PPARγ(1)

Molecule: O=C(NC(Cc1cccc(Oc2ccccc2)c1)C(=O)O)c1ccc(OCCN(Cc2ccccc2)Cc2ccccc2)cc1 (centres unmarked)
Ki: 1 to 3 µM
--
Molecule: O=C(N[C@@H](Cc1ccc(OCc2ccccc2)cc1)C(=O)O)c1cccc(OCc2cccc(Oc3ccccc3)c2)c1
Ki: < 1 µM
--
Molecule: Cc1nc2ccccc2nc1OCCOc1ccc(C(=O)N[C@@H](Cc2ccc(OCc3ccccc3)cc2)C(=O)N(C)C)cc1
Ki: 1 to 3 µM
--
Molecule: O=C(N[C@@H](Cc1ccc(OCc2ccccc2)cc1)C(=O)O)c1ccc(OCc2ccc(OCc3ccccc3)cc2)cc1
Ki: < 1 µM
--
Molecule: CCCCOc1ccc(COc2ccc(C(=O)N[C@@H](CC3CCCCC3)C(=O)O)cc2)cc1
Ki: < 1 µM
--
Molecule: COC(=O)[C@H](Cc1ccc(OCc2ccccc2)cc1)NC(=O)c1ccc(OCc2ccccc2Cl)cc1
Ki: < 1 µM
--
Molecule: O=C(N[C@@H](Cc1ccc(OCc2ccccc2)cc1)C(=O)O)c1cccc(OCc2ccc(OCc3ccccc3)cc2)c1
Ki: < 1 µM
--
Molecule: O=C(N[C@@H](Cc1ccc(OCc2ccccc2)cc1)C(=O)O)c1ccc(OCCOc2cccc(Br)c2)cc1
Ki: 1 to 3 µM
--
Molecule: O=C(N[C@@H](Cc1ccc(OCc2ccccc2)cc1)C(=O)O)c1ccc(OCc2ccccc2)cc1
Ki: < 1 µM
--
Molecule: Cc1nc2ccccc2nc1OCCOc1ccc(C(=O)N[C@@H](Cc2ccc(F)cc2)C(=O)O)cc1
Ki: > 3 µM
--
Molecule: O=C(NC(Cc1c[nH]c2ccc(Br)cc12)C(=O)O)c1ccc(OCCN(Cc2ccccc2)Cc2ccccc2)cc1 (centres unmarked)
Ki: 1 to 3 µM
--
Molecule: COC(=O)[C@H](Cc1ccc(OCc2ccccc2)cc1)NC(=O)c1ccc(OCCOc2nc3ccccc3nc2C)cc1
Ki: < 1 µM
--
Molecule: O=C(O)CCN(Cc1cccc(OCc2ccccc2)c1)C(=O)c1ccc(OCCN(Cc2ccccc2)Cc2ccccc2)cc1
Ki: < 1 µM
--
Molecule: O=C(N[C@@H](Cc1ccc(OCc2ccccc2)cc1)C(=O)O)c1ccc(OCCCc2ccccc2)cc1
Ki: 1 to 3 µM
--
Molecule: O=C(O)CN(Cc1cccc(Oc2ccccc2)c1)C(=O)c1ccc(OCCN(Cc2ccccc2)Cc2ccccc2)cc1
Ki: 1 to 3 µM
--
Molecule: COC(=O)[C@H](Cc1ccc(OCc2ccccc2)cc1)NC(=O)c1ccc(OCCOc2cccc3cccnc23)cc1
Ki: < 1 µM
--
Molecule: O=C(NC(Cc1ccc(-c2ccccc2)cc1)C(=O)O)c1ccc(OCCN(Cc2ccccc2)Cc2ccccc2)cc1 (centres unmarked)
Ki: 1 to 3 µM
--
Molecule: O=C(N[C@H](Cc1c[nH]c2ccccc12)C(=O)O)c1ccc(OCCN(Cc2ccccc2)Cc2ccccc2)cc1
Ki: 1 to 3 µM
--
Molecule: COC(=O)[C@H](Cc1ccc(OCc2ccccc2)cc1)NC(=O)c1ccc(OCc2ccccc2C)cc1
Ki: < 1 µM
--
Molecule: Cc1nc2ccccc2nc1OCCOc1cccc(C(=O)N[C@@H](Cc2ccc(OCc3ccccc3)cc2)C(=O)O)c1
Ki: < 1 µM

Data provenance: patent US20060160894A1
